All values here come from patent US20240228469A1.

Molecular target: PCSK9 (Homo sapiens, UniProt Q8NBP7)
Sequence (Q8NBP7 31-692): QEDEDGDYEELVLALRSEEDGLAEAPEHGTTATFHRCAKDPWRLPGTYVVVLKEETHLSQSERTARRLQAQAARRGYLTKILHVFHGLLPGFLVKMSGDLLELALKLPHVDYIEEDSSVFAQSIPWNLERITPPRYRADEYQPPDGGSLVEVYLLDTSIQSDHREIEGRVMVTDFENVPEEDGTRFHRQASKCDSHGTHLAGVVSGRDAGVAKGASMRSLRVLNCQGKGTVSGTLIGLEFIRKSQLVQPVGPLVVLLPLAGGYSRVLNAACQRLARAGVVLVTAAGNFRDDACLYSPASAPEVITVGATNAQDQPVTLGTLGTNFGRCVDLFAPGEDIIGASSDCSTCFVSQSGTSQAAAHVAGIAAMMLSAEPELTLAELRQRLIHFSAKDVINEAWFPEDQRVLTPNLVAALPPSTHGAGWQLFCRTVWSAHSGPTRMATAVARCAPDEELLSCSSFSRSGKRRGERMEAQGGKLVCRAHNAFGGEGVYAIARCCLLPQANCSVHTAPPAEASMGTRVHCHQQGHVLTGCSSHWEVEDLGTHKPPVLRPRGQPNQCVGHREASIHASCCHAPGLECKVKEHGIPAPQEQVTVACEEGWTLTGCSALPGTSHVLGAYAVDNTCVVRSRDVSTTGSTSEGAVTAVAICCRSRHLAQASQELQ
Decision: Kd beneath 2 nM gives criterion met; Kd meeting or exceeding 2 nM gives criterion not met.

Consider the worked cases shown below.
{"smiles-entry": "O=c1cccnn1-c1ccc(N[C@H]2CC[C@H](Nc3ncc(C4CC4)nn3)C2)nc1", "group-label": "criterion not met"}
{"smiles-entry": "Cc1cccn(-c2ccc(N[C@H]3CC[C@H](Nc4ncc(C5CC5)nn4)C3)nc2)c1=O", "group-label": "criterion met"}
{"smiles-entry": "Cn1c(=O)n(-c2ccc(N[C@H]3CC[C@H](Nc4ncc(C5CC5)nn4)C3)nc2)c2ccc(C(=O)O)cc21", "group-label": "criterion met"}
{"smiles-entry": "N#Cc1cccn(-c2ccc(N[C@H]3CC[C@H](Nc4ncc(C5CC5)nn4)C3)nc2)c1=O", "group-label": "criterion not met"}
{"smiles-entry": "COc1ccc(=O)n(-c2ccc(N[C@H]3CC[C@H](Nc4ncc(C)nn4)C3)nc2)c1", "group-label": "criterion not met"}
{"smiles-entry": "O=C(NC1COC1)c1cnc(N[C@H]2CC[C@H](Nc3ccc(-n4ccccc4=O)cn3)C2)nn1", "group-label": "criterion not met"}

## Task Regarding `Cc1cnc(N[C@H]2CC[C@H](Nc3ccc(-n4c(=O)ccc5cccnc54)cn3)C2)nn1` , kindly confirm whether its Kd is beneath 2 nM.
## Result criterion not met

## Task Regarding `Cc1cnc(N[C@H]2CC[C@H](Nc3ccc(-n4cccc(-c5cnn(C)c5)c4=O)cn3)C2)nn1` , kindly confirm whether its Kd is beneath 2 nM.
## Result criterion not met

---

Target: PCSK9 (Homo sapiens, UniProt Q8NBP7, G670E/V474I)
Sequence (Q8NBP7 with tags, fused parts or gaps V474I/G670E): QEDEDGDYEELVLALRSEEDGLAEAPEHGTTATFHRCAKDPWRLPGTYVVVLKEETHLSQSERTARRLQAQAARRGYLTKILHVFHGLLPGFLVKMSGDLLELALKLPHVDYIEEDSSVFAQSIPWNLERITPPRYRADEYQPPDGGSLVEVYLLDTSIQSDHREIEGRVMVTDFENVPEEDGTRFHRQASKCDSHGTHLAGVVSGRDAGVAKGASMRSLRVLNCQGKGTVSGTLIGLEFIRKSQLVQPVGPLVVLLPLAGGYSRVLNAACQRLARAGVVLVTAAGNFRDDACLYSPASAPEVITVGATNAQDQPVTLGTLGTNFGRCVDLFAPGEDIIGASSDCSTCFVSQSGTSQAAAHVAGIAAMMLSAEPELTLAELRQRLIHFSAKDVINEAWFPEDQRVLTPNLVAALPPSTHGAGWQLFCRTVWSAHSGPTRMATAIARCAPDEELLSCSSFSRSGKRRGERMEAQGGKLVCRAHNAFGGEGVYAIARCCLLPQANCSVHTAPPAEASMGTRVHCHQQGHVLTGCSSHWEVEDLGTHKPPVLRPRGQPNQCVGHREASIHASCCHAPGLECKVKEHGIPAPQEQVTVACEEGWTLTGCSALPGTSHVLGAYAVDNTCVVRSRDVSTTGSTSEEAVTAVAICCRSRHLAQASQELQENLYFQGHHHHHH
Assay: Assay 3 PCSK9 LDL-C uptake assay in HepG2 cells
Format: cell-based
Set-up: TEV site (C); His6 (C); host or cells: added to HepG2 (ATCC #HB-8065)
Conditions: 125 nM PCSK9, pHrodo Red-LDL, read-out: Assay 3 LDL uptake potency
Can you tell me pEC50 for the items I'm about to list?
Give bare numbers, as −log10 of the molar value.

{"molecule": "Cc1cnc(N[C@H]2CC[C@H](Nc3ccc(-n4c(=O)n(C)c5ccc(C#N)nc54)cn3)C2)nn1", "data-value": 6.70}
{"molecule": "Cc1cnc(N[C@H]2CC[C@H](Nc3ccc(-n4cc(OC(F)F)ccc4=O)cn3)C2)nn1", "data-value": 6.70}
{"molecule": "Cc1cnc(N[C@H]2CC[C@H](Nc3ccc(-n4cc(Cl)ccc4=O)cn3)C2)nn1", "data-value": 6.30}
{"molecule": "Cc1ccc(=O)n(-c2ccc(N[C@H]3CC[C@H](Nc4ncc(C(=O)NC5COC5)nn4)C3)nc2)c1", "data-value": 7.00}
{"molecule": "O=c1cccnn1-c1ccc(N[C@H]2CC[C@H](Nc3ncc(C4CC4)nn3)C2)nc1", "data-value": 6.30}

For each of the molecules below, state pEC50.
1. Cc1cnc(N[C@H]2CC[C@H](Nc3ccc(-n4nccc(OC(F)F)c4=O)cn3)C2)nn1
2. Cc1cnc(N[C@H]2CC[C@H](Nc3ccc(-n4cccc(Cl)c4=O)cn3)C2)nn1

## Result
1: 6.52; 2: 7.00

For each of the molecules below, state pEC50.
1. C#CCNC(=O)c1cnc(N[C@H]2CC[C@H](Nc3ccc(-n4ccccc4=O)cn3)C2)nn1
2. O=c1ccc(OC(F)F)cn1-c1ccc(N[C@H]2CC[C@H](Nc3ncc(C4CC4)nn3)C2)nc1
3. Cc1cnc(N[C@H]2CC[C@H](Nc3ccc(-n4cccc(C)c4=O)cn3)C2)nn1 [Example 131]
4. COc1ccc(=O)n(-c2ccc(N[C@H]3CC[C@H](Nc4ncc(C5CC5)nn4)C3)nc2)c1
5. Cc1cnc(N[C@H]2CC[C@H](Nc3ccc(-n4c(=O)ccc5cccnc54)cn3)C2)nn1
6. COc1ccn(-c2ccc(N[C@H]3CC[C@H](Nc4ncc(C)nn4)C3)nc2)c(=O)c1
7. Cc1cccn(-c2ccc(N[C@H]3CC[C@H](Nc4ncc(C(=O)NC5COC5)nn4)C3)nc2)c1=O

## Result
1. 6.70
2. 6.52
3. 7.00
4. 6.30
5. 7.00
6. 6.52
7. 7.00

---

Target: potassium ion channel hERG (Homo sapiens, UniProt Q12809)
Sequence (Q12809 whole entry): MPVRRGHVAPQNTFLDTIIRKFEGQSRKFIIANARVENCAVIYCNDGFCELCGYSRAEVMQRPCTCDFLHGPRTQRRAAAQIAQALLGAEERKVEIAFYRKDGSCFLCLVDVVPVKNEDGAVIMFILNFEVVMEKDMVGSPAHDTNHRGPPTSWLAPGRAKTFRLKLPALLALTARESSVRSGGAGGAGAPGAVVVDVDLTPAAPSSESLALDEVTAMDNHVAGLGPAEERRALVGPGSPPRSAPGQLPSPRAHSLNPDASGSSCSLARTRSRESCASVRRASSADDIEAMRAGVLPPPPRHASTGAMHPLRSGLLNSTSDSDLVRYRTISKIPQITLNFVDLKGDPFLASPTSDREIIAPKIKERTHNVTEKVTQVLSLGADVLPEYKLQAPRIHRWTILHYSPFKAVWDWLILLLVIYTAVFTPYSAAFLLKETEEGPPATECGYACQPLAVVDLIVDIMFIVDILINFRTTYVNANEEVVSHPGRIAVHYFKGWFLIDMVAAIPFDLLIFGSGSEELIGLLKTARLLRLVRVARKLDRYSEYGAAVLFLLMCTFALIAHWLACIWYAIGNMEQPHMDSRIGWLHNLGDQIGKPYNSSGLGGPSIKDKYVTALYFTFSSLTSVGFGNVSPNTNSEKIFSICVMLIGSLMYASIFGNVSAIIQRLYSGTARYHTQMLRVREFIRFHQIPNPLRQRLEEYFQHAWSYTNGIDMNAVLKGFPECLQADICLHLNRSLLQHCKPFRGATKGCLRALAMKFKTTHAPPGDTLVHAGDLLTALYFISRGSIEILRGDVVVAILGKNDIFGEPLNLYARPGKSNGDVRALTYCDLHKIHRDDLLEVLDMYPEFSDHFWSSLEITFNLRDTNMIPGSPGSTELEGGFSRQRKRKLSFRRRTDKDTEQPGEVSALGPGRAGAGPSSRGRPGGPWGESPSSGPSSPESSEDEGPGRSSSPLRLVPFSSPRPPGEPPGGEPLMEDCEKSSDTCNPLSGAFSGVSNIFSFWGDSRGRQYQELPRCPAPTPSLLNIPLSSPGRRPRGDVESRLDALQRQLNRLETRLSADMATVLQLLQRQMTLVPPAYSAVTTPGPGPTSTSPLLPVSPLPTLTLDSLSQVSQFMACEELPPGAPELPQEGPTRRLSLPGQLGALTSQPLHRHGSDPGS
Assay: Assay 5 hERG assay (patch clamp, CHO cells over-expressing hERG)
Conditions: SyncroPatch 384PE, room temperature, geometric mean, read-out: Assay 5 (hERG Hu CHO if EPh CR-Syncro) GMean IC50
quantity-kind: IC50

Example compounds with recorded IC50:
{"smiles-entry": "O=C(NCCO)c1cnc(N[C@H]2CC[C@H](Nc3ccc(-n4ccccc4=O)cn3)C2)nn1", "IC50": "> 40 µM"}
{"smiles-entry": "CN(CCO)C(=O)c1cnc(N[C@H]2CC[C@H](Nc3ccc(-n4ccccc4=O)cn3)C2)nn1", "IC50": "> 40.1 µM"}
{"smiles-entry": "Cn1c(=O)n(-c2ccc(N[C@H]3CC[C@H](Nc4ncc(C5CC5)nn4)C3)nc2)c2cc(P(C)(C)=O)ccc21", "IC50": "> 40.1 µM"}
{"smiles-entry": "O=C(NC1COC1)c1cnc(N[C@H]2CC[C@H](Nc3ccc(-n4cccc(Cl)c4=O)cn3)C2)nn1", "IC50": "> 40.1 µM"}
{"smiles-entry": "CN(C)c1cnc(N[C@H]2CC[C@H](Nc3ccc(-n4ccccc4=O)cn3)C2)nn1", "IC50": "> 40.1 µM"}
{"smiles-entry": "O=c1ccccn1-c1ccc(N[C@H]2CC[C@H](Nc3ncc(-c4ccn[nH]4)nn3)C2)nc1", "IC50": "> 40.1 µM"}

For each of the compounds below, state IC50.
1. Cc1cnc(N[C@H]2CC[C@H](Nc3ccc(-n4c(=O)n(C)c5cccnc54)cn3)C2)nn1
2. Cc1cnc(N[C@H]2CC[C@H](Nc3ccc(-n4cc(OC(F)F)ccc4=O)cn3)C2)nn1
3. COc1cccn(-c2ccc(N[C@H]3CC[C@H](Nc4ncc(C)nn4)C3)nc2)c1=O
4. C#CCNC(=O)c1cnc(N[C@H]2CC[C@H](Nc3ccc(-n4ccccc4=O)cn3)C2)nn1
5. Cc1cnc(N[C@H]2CC[C@H](Nc3ccc(-n4c(=O)ccc5cccnc54)cn3)C2)nn1

## Result
1. > 40.1 µM
2. > 40.1 µM
3. > 40 µM
4. > 40 µM
5. > 40.1 µM

---

Target: PCSK9 (Homo sapiens, UniProt Q8NBP7, G670E/V474I)
Test: biochemical
Decision: IC50 beneath 80 nM gives Condition met; IC50 meeting or exceeding 80 nM gives Condition not met.

Consider the worked cases shown below.
{"molecule": "CN(CCO)C(=O)c1cnc(N[C@H]2CC[C@H](Nc3ccc(-n4ccccc4=O)cn3)C2)nn1 [Example 151]", "group-label": "Condition not met"}
{"molecule": "COc1cccc(OC)c1-c1ccc(N[C@H]2CC[C@H](Nc3ncc(C)nn3)C2)nc1 [Example 307]", "group-label": "Condition not met"}
{"molecule": "O=C(NCCO)c1cnc(N[C@H]2CC[C@H](Nc3ccc(-n4ccccc4=O)cn3)C2)nn1 [Example 72]", "group-label": "Condition not met"}

## Task Regarding Cc1cnc(N[C@H]2CC[C@H](Nc3ccc(-n4c(=O)n(C)c5cccnc54)cn3)C2)nn1 [Example 212] , kindly confirm whether its IC50 is beneath 80 nM.
## Result Condition met

## Task Regarding Cc1cnc(NCC(CCO)CNc2ccc(-n3c(=O)n(C)c4ccccc43)cn2)nn1 (racemic) [Example 321] , kindly confirm whether its IC50 is beneath 80 nM.
## Result Condition not met

## Task Regarding NC(=O)c1cnc(N[C@H]2CC[C@H](Nc3ccc(-n4ccccc4=O)cn3)C2)nn1 [Example 74] , kindly confirm whether its IC50 is beneath 80 nM.
## Result Condition not met

## Task Regarding Cc1cnc(N[C@H]2CC[C@H](Nc3ccc(-n4cccc(Cl)c4=O)cn3)C2)nn1 [Example 129] , kindly confirm whether its IC50 is beneath 80 nM.
## Result Condition met

## Task Regarding N#Cc1cccn(-c2ccc(N[C@H]3CC[C@H](Nc4ncc(C(=O)NC5COC5)nn4)C3)nc2)c1=O [Example 159] , kindly confirm whether its IC50 is beneath 80 nM.
## Result Condition met

---

So I've got Kd readings for PCSK9 (Homo sapiens), take a look.
One number for each entry, in nM.

{"smiles-entry": "Cc1cnc(N[C@H]2CC[C@H](Nc3ccc(-n4c(=O)n(C)c5cccnc54)cn3)C2)nn1", "measurement-target": "PCSK9 (Homo sapiens)", "Kd / nM": 1.7}
{"smiles-entry": "Cn1c(=O)n(-c2ccc(N[C@H]3CC[C@H](Nc4ncc(C5CC5)nn4)C3)nc2)c2ncccc21", "measurement-target": "PCSK9 (Homo sapiens)", "Kd / nM": 1.4}

For each of the compounds below, state Kd.
1. Cc1cnc(N[C@H]2CC[C@H](Nc3ccc(-n4ncc5ccccc54)cn3)C2)nn1
2. O=c1c(Cl)cccn1-c1ccc(N[C@H]2CC[C@H](Nc3ncc(C4CC4)nn3)C2)nc1

## Result
1. 6.9
2. 0.4
